test: Stability of nitric oxide generators in PBS at room temperature, absorbance (Table 5); settings: pbs
ASSAY_METRIC: degraded at 24 h

| MOLECULE | RECORDED_VALUE |
| --- | --- |
| CCN(CC)[N+]([O-])=NOC [M-DEA/NO] | 14% |
| COCON=[N+]([O-])NC(C)C [MOM-IPA/NO] | 5% |

* * *

test: physchem; details: pH 7.4

| MOLECULE | UNIT_OF_MEASURE | Half-life |
| --- | --- | --- |
| NCCCNCCCCN(CCCN)[N+]([O-])=NO [SPER/NO, monohydrate] | min | 39 |
